Source listed as PubChem BioAssay.

Would you kindly list inhibition for each of these molecules?
test: 384-well plate pilot, post-Golgi transport modulator project, inhibition of yeast transport mutant growth (AID 636); conditions: absorbance 615 nm, about 18 h, stronger effect = higher value; note: test concentration not given here
Field format: number, assumed %, no unit text.

Enquiry: // returns reported inhibition for input COc1ccccc1CNC(=O)C(C)NS(=O)(=O)c1ccccc1 (stereo unspecified)
Return: -7.4

Enquiry: // returns reported inhibition for input Clc1ccc(C2=Nn3c(nnc3-c3n[nH]c4c3CCC4)SC2)cc1Cl
Return: -6.58

Enquiry: // returns reported inhibition for input CCOC(=O)C1CCN(c2nc3ccccc3nc2C(C#N)C(=O)OC(C)C)CC1 (stereo unspecified)
Return: 1.37

Enquiry: // returns reported inhibition for input O=C(c1ccccc1)N1CCN(CC2CC=CCC2)CC1 (stereo unspecified)
Return: -6.05

Enquiry: // returns reported inhibition for input CCOC(=O)c1ccc(NC(=O)Nc2ccn(C)n2)cc1
Return: -6.27

Enquiry: // returns reported inhibition for input O=C(CSc1ncnc2ccccc12)N1CCN(c2ccccc2)CC1
Return: -1.05

Enquiry: // returns reported inhibition for input COc1ccc(-c2noc(CCCOc3ccccc3)n2)cc1OC
Return: -1.92

Enquiry: // returns reported inhibition for input COc1ccc(OCCOC(=O)c2cccc(-n3cnnn3)c2)cc1
Return: -8.36

Enquiry: // returns reported inhibition for input CN(CCc1ccccn1)c1ncnc2[nH]ncc12
Return: -6.62

Enquiry: // returns reported inhibition for input COC(=O)CSc1nnc(CSc2nc(C)cc(C)n2)n1Cc1ccco1
Return: -4.53

Enquiry: // returns reported inhibition for input C=CCn1c(COc2ccc(Cl)cc2)nnc1SCC(=O)N1CC(=O)Nc2ccccc21
Return: -5.2
